Data credit: the OligoGym collection

# measurement.target: C1orf64
# method.notes: pooled miR-30 sensor sort-seq; sequence = guide strand; also: reference of the scale not given here
# run.parameters: shRNA
Criterion: sensor-assay potency score (higher = more potent) meeting or surpassing -0.4. Met: t. Not met: f.

Check out these entries, answers already filled in.
TTAGCCTCGGGAACCTCCTGGG; f
TTGAAGACCTCACAGGCGCAGC; f
TTTCAGTGAGTCCTTGACTGTT; f
TAAGTCTTCATTGGTGGGGTGA; t
TCAATAACAAAAGTCAGGTGAG; t

Now look at this entry.
Is the recorded value of sensor-assay potency score (higher = more potent) equal to or greater than -0.4 for this sequence? TTCAGTGAGTCCTTGACTGTTC t

###

# measurement.target: SFRP4
# method.notes: pooled miR-30 sensor sort-seq; sequence = guide strand
# run.parameters: shRNA
property: sensor-assay potency score (higher = more potent)
Answer with a number only.

Examples from the recorded data:
TATGGATCTTTTACTAAGCTGA; -0.661
TTTTCAAGAAGCATCATCCTTG; 0.0999
TTGTCCTGAACTGTTCTCCGCT; 0.199

TTTTCTTCTTGTCCTGAACTGT yielded sensor-assay potency score (higher = more potent) of -0.361

TTTACTAAGCTGATCTCTCCAT yielded sensor-assay potency score (higher = more potent) of -0.0154

TAGACAGGCAGCTCGTCGCAGG yielded sensor-assay potency score (higher = more potent) of -0.454

TTTACACTTGCACCGATCGGGG yielded sensor-assay potency score (higher = more potent) of -0.824

TTTACATCCACCACCGTTGTGA yielded sensor-assay potency score (higher = more potent) of 0.315

###

# measurement.target: NUTF2
# method.notes: pooled miR-30 sensor sort-seq; sequence = guide strand
# run.parameters: shRNA
property: sensor-assay potency score (higher = more potent)
Answer with a number only.

Examples from the recorded data:
TTAATAGGAACATCTGGTGGAA; -0.0861
TAATAGGAACATCTGGTGGAAC; -1.27
TTTAATAGGAACATCTGGTGGA; 0.705

TATCATTATCAAATAACTGGTA yielded sensor-assay potency score (higher = more potent) of 0.126

TTTTGCATTACTTAAGTCTTTC yielded sensor-assay potency score (higher = more potent) of -0.669

TTCTCCTTCACTTCTTTGGGTT yielded sensor-assay potency score (higher = more potent) of -0.477

TAGTAATGTTGAATGAAGCTGG yielded sensor-assay potency score (higher = more potent) of 0.656

TGCAACTAGTCTAGCATCCAAA yielded sensor-assay potency score (higher = more potent) of -1.42

###

Measured sensor-assay potency score (higher = more potent) by item
# measurement.target: RTN4
# method.notes: pooled miR-30 sensor sort-seq; sequence = guide strand
# run.parameters: shRNA
Answer with a number only.

TAAATCTCTATCTATGAGTAGA; -0.547
TTTCTGAAGACACAACTTCATC; -1.21
TAAAGATCTAACAACGATCTGT; 0.175
TTTCTGAAGTAGGATCTCCTAA; -0.155
TATCTGTTGTGACATAATCTGT; -0.595

// assay RTN4, entry TTTTGTGTTATCTAAACTGAGC , sensor-assay potency score (higher = more potent) value = -0.981

// assay RTN4, entry TTGTGACATAATCTGTCTCAGA , sensor-assay potency score (higher = more potent) value = -1.04

// assay RTN4, entry TTTCTGAGTATTCTAATTCTGA , sensor-assay potency score (higher = more potent) value = -0.686

// assay RTN4, entry TTCTAGGTCAGTATATTCCCTG , sensor-assay potency score (higher = more potent) value = -0.784

// assay RTN4, entry TAACTAACTTCTCTTCTTCATC , sensor-assay potency score (higher = more potent) value = -0.896
